kon listing for selected binders.
Molecular target: T1, Human BCMA (human, UniProt Q02223 1-54, limits assumed)
T1 construct: Soluble analyte in SPR; construct not described; also called huBCMA; B-cell maturation antigen
T1 sequence (looked up): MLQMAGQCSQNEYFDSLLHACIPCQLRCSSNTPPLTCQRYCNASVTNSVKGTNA
Experiment: SPR, IgG immobilised, 25 C

{"BINDER": "L1.GDF/L3.NY/H3.AL (antibody, V domains shown, IgG) VH: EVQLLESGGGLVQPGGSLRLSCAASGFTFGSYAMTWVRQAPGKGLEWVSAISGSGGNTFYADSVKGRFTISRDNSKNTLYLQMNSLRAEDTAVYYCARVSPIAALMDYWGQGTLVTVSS VL: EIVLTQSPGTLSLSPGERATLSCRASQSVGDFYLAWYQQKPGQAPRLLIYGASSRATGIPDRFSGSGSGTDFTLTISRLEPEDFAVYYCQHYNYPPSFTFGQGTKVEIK", "kon [M⁻¹ s⁻¹]": 907000}
{"BINDER": "L1.GDF/L3.NY/H3.AQ (antibody, V domains shown, IgG) VH: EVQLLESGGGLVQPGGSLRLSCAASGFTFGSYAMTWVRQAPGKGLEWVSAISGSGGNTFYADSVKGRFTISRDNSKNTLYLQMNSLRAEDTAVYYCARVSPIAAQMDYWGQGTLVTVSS VL: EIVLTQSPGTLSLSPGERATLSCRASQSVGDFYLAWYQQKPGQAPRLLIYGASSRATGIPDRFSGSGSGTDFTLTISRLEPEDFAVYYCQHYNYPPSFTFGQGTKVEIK", "kon [M⁻¹ s⁻¹]": 984000}
{"BINDER": "L1.GDF/L3.KW/H3.AQ (antibody, V domains shown, IgG) VH: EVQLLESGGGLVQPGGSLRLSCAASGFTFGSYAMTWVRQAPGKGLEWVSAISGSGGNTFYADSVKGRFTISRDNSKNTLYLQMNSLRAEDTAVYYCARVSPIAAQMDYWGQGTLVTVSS VL: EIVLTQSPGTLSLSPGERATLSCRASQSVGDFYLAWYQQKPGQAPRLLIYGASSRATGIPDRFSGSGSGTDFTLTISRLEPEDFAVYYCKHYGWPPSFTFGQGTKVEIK", "kon [M⁻¹ s⁻¹]": 797000}
